Values compiled from ChEMBL document CHEMBL4052699.

assay: Selectivity index, ratio of CC50 for cytotoxicity against African green monkey Vero cells to IC50 for Trichomonas vaginalis GT3
Ratio CC50/IC50 of 1000 or higher: rule met. Under 1000: rule not met.

COc1ccc2c(c1)c(CC(=O)Nc1ncc([N+](=O)[O-])s1)c(C)n2C(=O)c1ccc(Cl)cc1 | rule not met
COc1ccc2cc([C@H](C)C(=O)Nc3ncc([N+](=O)[O-])s3)ccc2c1 | rule met
N=C(N)c1ccc(OCCCCCOc2ccc(C(=N)N)cc2)cc1 [PENTAMIDINE] | rule not met
Cc1ncc([N+](=O)[O-])n1CCO [METRONIDAZOLE] | rule met
CC(C)(Oc1ccc(Cl)cc1)C(=O)Nc1ncc([N+](=O)[O-])s1 | rule not met

Then this compound:
Prompt: Does the reported Ratio CC50/IC50 for CC(C)Cc1ccc(C(C)C(=O)Nc2ncc([N+](=O)[O-])s2)cc1 (racemic) fall at or above the 1000 mark?
Response: rule met

---

assay: Selectivity index, ratio of CC50 for cytotoxicity against African green monkey Vero cells to IC50 for Leishmania mexicana MHOM/MX/ISETGS; type: toxicity, cell-based; settings: read-out: Ratio CC50/IC50
Give selectivity ratio for every item shown.

N=C(N)c1ccc(OCCCCCOc2ccc(C(=N)N)cc2)cc1 | 3.2
CC(=O)Oc1ccccc1C(=O)Nc1ncc([N+](=O)[O-])s1 [NITAZOXANIDE] | 115
Cc1ncc([N+](=O)[O-])n1CCO | < 7

For each of the items listed, what is its selectivity ratio?
1. CC(C)(Oc1ccc(Cl)cc1)C(=O)Nc1ncc([N+](=O)[O-])s1
2. COc1ccc2c(c1)c(CC(=O)Nc1ncc([N+](=O)[O-])s1)c(C)n2C(=O)c1ccc(Cl)cc1
3. COc1ccc2cc([C@H](C)C(=O)Nc3ncc([N+](=O)[O-])s3)ccc2c1
4. CC(C)Cc1ccc(C(C)C(=O)Nc2ncc([N+](=O)[O-])s2)cc1 (racemic)

Response:
1: 6; 2: 15; 3: 49; 4: 31

---

Give log10 CC50 for every item shown.
assay: Cytotoxicity against African green monkey Vero cells incubated for 24 to 48 hrs by SRB assay; assay type: cell-based; conditions: chlorocebus sabaeus
A value of 2 here means CC50 of 100 in µM, since values are log10.

Example results:
CC(C)Cc1ccc(C(C)C(=O)Nc2ncc([N+](=O)[O-])s2)cc1 (racemic) | 2.30
CCCCCCCCCCCCCCCCOP(=O)([O-])OCC[N+](C)(C)C [MILTEFOSINE] | -0.92
COc1ccc2c(c1)c(CC(=O)Nc1ncc([N+](=O)[O-])s1)c(C)n2C(=O)c1ccc(Cl)cc1 | 1.11
COc1ccc2cc([C@H](C)C(=O)Nc3ncc([N+](=O)[O-])s3)ccc2c1 | 2.26
O=[N+]([O-])c1cncs1 | 2.64

Now examine the next entry.
Prompt: Provide only the value of recorded log10 CC50 for CC(C)(Oc1ccc(Cl)cc1)C(=O)Nc1ncc([N+](=O)[O-])s1
Response: 1.34

---

Give pIC50 for every item shown.
test system: Leishmania amazonensis; test: Antiprotozoal activity against Leishmania amazonensis IFLA/BR/67/PH-8 incubated for 72 hrs by Neubauer chamber based cell counting method; format: functional; conditions: IFLA/BR/67/PH-8, 72 h
Give bare numbers, as −log10 of the molar value.

For each of the items listed, what is its pIC50?
1. COc1ccc2c(c1)c(CC(=O)Nc1ncc([N+](=O)[O-])s1)c(C)n2C(=O)c1ccc(Cl)cc1
2. CC(C)Cc1ccc(C(C)C(=O)Nc2ncc([N+](=O)[O-])s2)cc1 (racemic)
3. O=C(Cc1ccccc1Nc1c(Cl)cccc1Cl)Nc1ncc([N+](=O)[O-])s1

Response:
1: 6.06; 2: 5.19; 3: 5.72

For each of the items listed, what is its pIC50?
1. CC(C)(Oc1ccc(Cl)cc1)C(=O)Nc1ncc([N+](=O)[O-])s1
2. CCCCCCCCCCCCCCCCOP(=O)([O-])OCC[N+](C)(C)C [MILTEFOSINE]
3. COc1ccc2cc([C@H](C)C(=O)Nc3ncc([N+](=O)[O-])s3)ccc2c1

Response:
1: 5.46; 2: 5.87; 3: 5.44
